These data points were gathered from paper PMC5296247.

Measured TC50 (EC50), listed per entry for reference.
# Tested on: HG23 cells
# Experimental details: Nonspecific cytotoxic effects in HG23 cells
# Format: cell-based
# Recorded conditions: cytotoxic dose for 50% cell death (CC50), 1 to 100 μM, 48 h, CytoTox 96 kit and crystal violet staining, average of at least two determinations
Respond numerically; units are µM and should not be typed.

The following compounds have reported results that may help.
{"Compound": "O=C[C@@H]1CCC(=O)NC/C=C/CCC(c2cccc(Cl)c2)OC(=O)N[C@@H](CC2CCCCC2)C(=O)N1 (stereo partly shown)", "TC50 (EC50) / µM": 42.3}
{"Compound": "CCCCCC1CCCCCNC(=O)CC[C@@H](C=O)NC(=O)[C@H](CC(C)C)NC(=O)O1 (stereo partly shown)", "TC50 (EC50) / µM": 72.7}

// moving on: another record for TC50 (EC50)
Would you kindly share the measured TC50 (EC50) for CC(C)C[C@@H]1NC(=O)OC(c2cccc(Cl)c2)CCCCCCNC(=O)CC[C@@H](C=O)NC1=O (stereo partly shown) ?
67.4
